target_or_test_system: recombinant human CK2 (Homo sapiens, UniProt P68400)
Sequence (P68400 whole entry): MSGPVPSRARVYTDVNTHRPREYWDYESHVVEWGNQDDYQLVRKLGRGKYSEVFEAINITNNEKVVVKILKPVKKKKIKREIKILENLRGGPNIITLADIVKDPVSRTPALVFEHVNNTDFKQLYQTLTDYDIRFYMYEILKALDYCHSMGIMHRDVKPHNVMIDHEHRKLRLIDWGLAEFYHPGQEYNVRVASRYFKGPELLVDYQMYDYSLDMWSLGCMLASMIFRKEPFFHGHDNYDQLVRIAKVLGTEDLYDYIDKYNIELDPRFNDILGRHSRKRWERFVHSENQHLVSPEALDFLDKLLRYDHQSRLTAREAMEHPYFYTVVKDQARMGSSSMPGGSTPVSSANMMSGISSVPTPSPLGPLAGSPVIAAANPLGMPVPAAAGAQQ
Sequence (P67870 whole entry partner): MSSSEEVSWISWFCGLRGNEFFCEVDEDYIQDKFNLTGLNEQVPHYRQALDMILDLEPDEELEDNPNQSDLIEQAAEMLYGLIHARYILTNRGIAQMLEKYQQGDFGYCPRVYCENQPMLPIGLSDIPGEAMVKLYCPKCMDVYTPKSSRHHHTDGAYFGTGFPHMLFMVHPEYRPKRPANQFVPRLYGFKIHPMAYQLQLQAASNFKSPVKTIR
procedure_summary: CK2 Kinase Assay (33P-ATP, filter plate)
condition_parameters: final ATP concentration 15 μM, 10 min at 30° C.; read-out: protein kinase CK2 IC50
assay_readout: IC50 (nM)

smiles_structure: O=C(O)c1ccc2c(c1)cc1c(Nc3ccc(Cl)cc3)nc3ccncc3n12
assay_readout: IC50
value_observed: 12

The measured values listed here are drawn from patent US11845749B1.
